Listed below are compounds with IC50 for IRAK4 (Homo sapiens (Human), UniProt Q9NWZ3), each taken from published literature.

| smilesStr | IC50 |
| --- | --- |
| Cn1cc(-c2cccc(-c3ncc(-c4cnn(C)c4)c(N4CC(O)C4)n3)c2)cn1 | 100 to 1000 nM |
| N#Cc1cccc(-n2ncc3ccc(-c4cccc(N)c4)cc32)c1 | 100 to 1000 nM |
| CN1CCC(n2cc(Nc3nc(O[C@H]4CCOC4)c4c(ccn4-c4cnn(C)c4)n3)cn2)CC1 | ≤ 100 nM |

---

pIC50: −log10 of the molar value.
Listed below are molecules with pIC50 for IRAK4 (Homo sapiens (Human)), each taken from published literature.
reportedProperty: pIC50

| molecule | observedValue |
| --- | --- |
| CC(=O)N1CCC(F)(CNc2nc(-c3cccc(-c4cnn(C)c4)c3)ncc2-c2cnn(C)c2)CC1 | 6.00 to 7.00 |
| CN(C)C(=O)C(N)c1cccc(-c2ccc3cnn(-c4cccc(CO)n4)c3c2)n1 (stereo not shown) | > 7.00 |
| CCOc1cc2nn([C@H]3CC[C@H](O)CC3)cc2cc1NC(=O)c1cccc(C)[n+]1[O-] | 8.09 |
| CC[C@@H](O)C[C@H]1CCc2sc3ncnc(O[C@H]4CC[C@H](N(C)C)CC4)c3c21 | > 5.30 |
| CO[C@@H](C[C@H]1CCc2sc3ncnc(O[C@H]4CC[C@H](N(C)C)CC4)c3c21)C(N)=O | > 5.30 |
| Cn1cc(-c2cccc(-c3ncc(-c4ccn(C)n4)c(NCC4CCCNC4)n3)c2)cn1 (stereo not shown) | 6.00 to 7.00 |
| CC(C)Nc1cc(-c2cnc3cc(C(F)F)cnn23)ncc1C(=O)NC[C@H](F)C(C)(C)O | 8.40 |
| CN(C)C(=O)c1cc(Nc2nc(O[C@H]3CCOC3)c3c(ccn3-c3cnn(C)c3)n2)cs1 | ≥ 7.00 |
| O=C1Nc2nc3ccccc3n2Cc2cc(ccn2)-c2ccc(=O)n(n2)Cc2cccc1c2 | > 7.00 |
| OCc1ccc2ncnc(O[C@H]3CC[C@H](N4CCOCC4)CC3)c2c1 | ≥ 5.30 |
| CCNC(=O)c1ccc2sc3ncnc(N[C@H]4CC[C@H](N(C)C)CC4)c3c2c1 | 6.00 to 7.00 |
| CN(C)[C@H]1CC[C@H](Nc2nc(Nc3ccccc3)nc3[nH]ccc23)CC1 | 6.00 to 7.00 |
| Cn1cc(-c2cccc(-c3ncc(-c4cnn(C)c4)c(NC4CC4)n3)c2)cn1 | 6.00 to 7.00 |

---

Listed below are molecules with IC50 for IRAK4 (Homo sapiens (Human), UniProt Q9NWZ3), each taken from published literature.
reportedProperty: IC50

| molecule | observedValue |
| --- | --- |
| Cn1cc(-c2cccc(-c3ncc(-c4cnn(C)c4)c(NCC4CCN(S(C)(=O)=O)C4)n3)c2)cn1 (stereo not drawn) | < 100 nM |
| CCc1nc2c(N[C@H]3CC[C@H](N4CCOCC4)CC3)nc(Nc3cnn(C)c3)nc2s1 | ≤ 1000 nM |
| FC(F)(F)c1cccc(-n2ncc3ccc(-c4cccc(C5CCCN5)n4)cc32)n1 (stereo not drawn) | 100 to 1000 nM |

---

Listed below are molecules with IC50 for UniProt:Q9NWZ3, each taken from published literature.

| smilesStr | IC50 |
| --- | --- |
| CN(C)[C@H]1CC[C@H](Oc2ncnc3sc4c(c23)CN(C(=O)CC2CC2)CC4)CC1 | 5000 to 20000 nM |
| CC1(C)OC(=O)c2ccc(Nc3ncc(C(=O)N[C@H]4C[C@@H]4c4ccccc4)c(N[C@H](CO)c4ccccc4)n3)cc21 | 250 to 1000 nM |
| CNC(=O)c1cc(Nc2nc(O[C@@H]3CCOC3)c3c(ccn3-c3cnn(C)c3)n2)cs1 | ≤ 100 nM |
